# pKi per entry for 5-hydroxytryptamine receptor 2B (Homo sapiens)
Please treat pKi as minus the base-10 logarithm of the molar concentration.

Below, 2 compounds whose answers are already recorded.
| STRUCTURE_SMILES | READOUT | RECORDED_MEASUREMENT |
| --- | --- | --- |
| Cc1cc2c(cc1C(F)(F)F)N(C(=O)Nc1ccc(OCCc3ccccn3)nc1)CC2 | pKi | 7.70 |
| Cc1cc2c(cc1Cl)N(C(=O)Nc1ccc(OCc3nccs3)nc1)CC2 | pKi | 7.00 |

Turning now to a further compound:
With 5-hydroxytryptamine receptor 2B (Homo sapiens) as the test system, `Cc1cc2c(cc1Cl)N(C(=O)Nc1ccc(OCc3ccncc3)nc1)CC2` showed pKi of 8.10
